# Assayed Target: recombinant human UAE (Homo sapiens (Human))
# Assay Info: Ubiquitin Activating Enzyme (UAE) HTRF assay, human UAE
pIC50: −log10 of the molar value.
Entries and their pIC50

# Compound, Assayed Target, Meas Value
records = [
    ("NS(=O)(=O)OC[C@H]1C[C@@H](Nc2ccnc3cc(-c4ccc5ccccc5c4)nn23)[C@H](O)[C@@H]1O (racemic)", "recombinant human UAE (Homo sapiens (Human))", "> 8.00"),
]

Ask | pIC50 for NS(=O)(=O)OC[C@H]1C[C@@H](Nc2ccnc3cc(-c4cccc(-c5ccccn5)c4)nn23)[C@H](O)[C@@H]1O (racemic) ?
Reply | > 8.00

Ask | What do we get for NS(=O)(=O)OC[C@H]1C[C@@H](Nc2ccnc3cc(-c4cccc(Br)c4)nn23)[C@H](O)[C@@H]1O (racemic) ?
Reply | > 8.00

====

# Assayed Target: recombinant human UAE (Homo sapiens (Human))
# Assay Info: Ubiquitin Activating Enzyme (UAE) HTRF assay, human UAE
pIC50: −log10 of the molar value.
Entries and their pIC50

Some compounds with known pIC50 results, for comparison:
# Compound, Meas Value
rows = [
    ("NS(=O)(=O)OC[C@H]1C[C@@H](Nc2ccnc3cc(-c4ccccc4Oc4ccccc4)nn23)[C@H](O)[C@@H]1O (racemic)", "7.00 to 8.00"),
    ("C#Cc1cccc(-c2cc3nccc(N[C@@H]4C[C@H](COS(N)(=O)=O)[C@@H](O)[C@H]4O)n3n2)c1 (racemic)", "> 8.00"),
    ("NS(=O)(=O)OC[C@H]1C[C@@H](Nc2ccnc3cc(-c4ccc5ccccc5n4)nn23)[C@H](O)[C@@H]1O (racemic)", "> 8.00"),
    ("NS(=O)(=O)OC[C@H]1C[C@@H](Nc2ccnc3cc(-c4coc5ccc(Cl)cc45)nn23)[C@H](O)[C@@H]1O (racemic)", "> 8.00"),
    ("NS(=O)(=O)OC[C@H]1C[C@@H](Nc2ccnc3cc(-c4ccc5[nH]ccc5c4)nn23)[C@H](O)[C@@H]1O (racemic)", "7.00 to 8.00"),
]

Ask | pIC50 for NS(=O)(=O)OC[C@H]1C[C@@H](Nc2ccnc3cc(-c4cc(Cl)ccc4OC(F)(F)F)nn23)[C@H](O)[C@@H]1O (racemic) ?
Reply | > 8.00

Ask | What do we get for NS(=O)(=O)OC[C@H]1C[C@@H](Nc2ccnc3cc(-c4cccc5[nH]ccc45)nn23)[C@H](O)[C@@H]1O (racemic) ?
Reply | > 8.00

Ask | What do we get for NS(=O)(=O)OC[C@H]1C[C@@H](Nc2ccnc3cc(-c4ccc5cccnc5c4)nn23)[C@H](O)[C@@H]1O (racemic) ?
Reply | > 8.00

====

Entries and their pIC50
# Assayed Target: recombinant human UAE (Homo sapiens (Human), UniProt P22314)
# Sequence (P22314 whole entry): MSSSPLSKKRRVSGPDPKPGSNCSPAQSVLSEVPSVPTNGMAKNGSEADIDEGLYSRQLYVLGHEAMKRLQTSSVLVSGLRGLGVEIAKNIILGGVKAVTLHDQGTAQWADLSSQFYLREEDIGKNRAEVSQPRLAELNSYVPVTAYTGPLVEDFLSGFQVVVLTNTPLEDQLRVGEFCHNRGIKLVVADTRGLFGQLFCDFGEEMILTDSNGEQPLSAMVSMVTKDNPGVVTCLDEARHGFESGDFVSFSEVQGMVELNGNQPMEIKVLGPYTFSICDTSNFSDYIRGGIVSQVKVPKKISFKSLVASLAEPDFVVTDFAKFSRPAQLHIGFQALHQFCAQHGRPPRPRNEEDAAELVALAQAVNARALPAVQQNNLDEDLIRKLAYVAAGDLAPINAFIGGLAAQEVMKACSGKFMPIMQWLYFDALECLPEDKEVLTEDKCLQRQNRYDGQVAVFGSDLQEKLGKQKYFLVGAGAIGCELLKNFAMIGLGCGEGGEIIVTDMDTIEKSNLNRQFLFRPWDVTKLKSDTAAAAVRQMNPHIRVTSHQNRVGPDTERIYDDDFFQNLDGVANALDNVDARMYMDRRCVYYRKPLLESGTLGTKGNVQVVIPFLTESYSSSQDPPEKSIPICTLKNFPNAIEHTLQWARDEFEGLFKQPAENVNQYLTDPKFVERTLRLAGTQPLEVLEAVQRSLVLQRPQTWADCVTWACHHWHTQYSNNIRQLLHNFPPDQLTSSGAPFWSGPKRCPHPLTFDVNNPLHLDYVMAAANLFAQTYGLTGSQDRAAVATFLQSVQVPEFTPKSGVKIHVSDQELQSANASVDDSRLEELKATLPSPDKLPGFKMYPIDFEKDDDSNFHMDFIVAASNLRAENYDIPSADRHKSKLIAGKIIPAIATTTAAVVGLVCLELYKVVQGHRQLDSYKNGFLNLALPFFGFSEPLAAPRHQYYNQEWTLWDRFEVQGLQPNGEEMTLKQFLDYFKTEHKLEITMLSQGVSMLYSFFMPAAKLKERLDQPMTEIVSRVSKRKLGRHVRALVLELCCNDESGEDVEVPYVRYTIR
# Assay Info: Ubiquitin Activating Enzyme (UAE) HTRF assay, human UAE
pIC50: −log10 of the molar value.

Some compounds with known pIC50 results, for comparison:
# Compound, pIC50
records = [
    ("NS(=O)(=O)OC[C@H]1C[C@@H](Nc2ccnc3cc(-c4cc5ccccc5o4)nn23)[C@H](O)[C@@H]1O (racemic)", "> 8.00"),
    ("NS(=O)(=O)OC[C@H]1C[C@@H](Nc2cc(Cl)nc3cc(-c4ccc(Br)cc4)nn23)[C@H](O)[C@@H]1O (racemic)", "6.00 to 7.00"),
    ("NS(=O)(=O)OC[C@H]1C[C@@H](Nc2ccnc3cc(-c4cccc5cnccc45)nn23)[C@H](O)[C@@H]1O (racemic)", "> 8.00"),
    ("NS(=O)(=O)OC[C@H]1C[C@@H](Nc2ccnc3cc(-c4cccc(N5CCOCC5)c4)nn23)[C@H](O)[C@@H]1O (racemic)", "> 8.00"),
    ("NS(=O)(=O)OC[C@H]1C[C@@H](Nc2ccnc3cc(-c4csc5ccc(F)cc45)nn23)[C@H](O)[C@@H]1O (racemic)", "> 8.00"),
    ("NS(=O)(=O)OC[C@H]1C[C@@H](Nc2ccnc3cc(-c4ccc(C(F)(F)F)s4)nn23)[C@H](O)[C@@H]1O (racemic)", "7.00 to 8.00"),
    ("NS(=O)(=O)OC[C@H]1C[C@@H](Nc2ccnc3cc(-c4ccc5oc6ccccc6c5c4)nn23)[C@H](O)[C@@H]1O (racemic)", "> 8.00"),
    ("Cc1ccc(Cl)cc1-c1cc2nccc(N[C@@H]3C[C@H](COS(N)(=O)=O)[C@@H](O)[C@H]3O)n2n1 (racemic)", "> 8.00"),
]

Ask | State its pIC50 on recombinant human UAE (Homo sapiens (Human), UniProt P22314): NS(=O)(=O)OC[C@H]1C[C@@H](Nc2ccnc3cc(-c4cccc(OC(F)F)c4)nn23)[C@H](O)[C@@H]1O (racemic)
Reply | > 8.00

Ask | What do we get for Cc1cnc2cc(-c3ccccc3)nn2c1N[C@@H]1C[C@H](COS(N)(=O)=O)[C@@H](O)[C@H]1O (relative stereo) ?
Reply | 6.00 to 7.00

Ask | What do we get for NS(=O)(=O)OC[C@H]1C[C@@H](Nc2ccnc3cc(-c4ccc5[nH]c6ccccc6c5c4)nn23)[C@H](O)[C@@H]1O (racemic) ?
Reply | > 8.00
